biological target: recombinant HA (rHA), subtype H9 (A/chicken/HK/G9/97(H9N2)) (influenza A virus); assay: ELISA, coated rHA
Task for the reader: assign each of the following binders its reported EC50.

EC50 reading for Antibody 8 (antibody, V domains shown) VH: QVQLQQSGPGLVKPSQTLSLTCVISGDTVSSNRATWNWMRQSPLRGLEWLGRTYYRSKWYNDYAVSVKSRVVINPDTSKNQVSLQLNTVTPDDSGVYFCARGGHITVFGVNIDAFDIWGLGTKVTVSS VL: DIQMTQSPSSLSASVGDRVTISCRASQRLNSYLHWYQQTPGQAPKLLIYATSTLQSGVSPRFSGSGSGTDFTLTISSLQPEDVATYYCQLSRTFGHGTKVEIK : > 6 µg/mL

EC50 reading for Antibody 5 (antibody, V domains shown) VH: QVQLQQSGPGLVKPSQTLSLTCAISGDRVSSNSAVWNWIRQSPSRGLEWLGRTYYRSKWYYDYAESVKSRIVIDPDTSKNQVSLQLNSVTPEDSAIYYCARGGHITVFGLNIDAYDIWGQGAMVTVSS VL: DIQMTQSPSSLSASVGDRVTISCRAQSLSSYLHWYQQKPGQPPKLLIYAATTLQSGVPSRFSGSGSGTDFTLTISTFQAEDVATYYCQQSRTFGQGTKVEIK : > 6 µg/mL

EC50 reading for Antibody 10 (antibody, V domains shown) VH: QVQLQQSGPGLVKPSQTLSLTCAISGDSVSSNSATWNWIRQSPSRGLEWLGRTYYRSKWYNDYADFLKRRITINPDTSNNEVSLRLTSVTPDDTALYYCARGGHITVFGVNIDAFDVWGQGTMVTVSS VL: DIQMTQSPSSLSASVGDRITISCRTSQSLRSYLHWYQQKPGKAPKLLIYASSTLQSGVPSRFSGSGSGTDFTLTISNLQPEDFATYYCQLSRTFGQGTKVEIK : 2.7 µg/mL

EC50 reading for Antibody 6 (antibody, V domains shown) VH: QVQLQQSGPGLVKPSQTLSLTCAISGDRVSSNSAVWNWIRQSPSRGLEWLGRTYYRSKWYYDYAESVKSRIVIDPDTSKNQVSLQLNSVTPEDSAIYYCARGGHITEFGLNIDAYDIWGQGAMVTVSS VL: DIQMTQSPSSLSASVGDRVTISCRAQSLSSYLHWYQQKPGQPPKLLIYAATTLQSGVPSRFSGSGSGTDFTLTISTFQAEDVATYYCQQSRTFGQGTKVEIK : > 6 µg/mL
